Just for reference, ChEMBL document CHEMBL6071190 is where these values come from.

test.description: Antiproliferative activity against human IGR-37 cell line
Type: functional, cell-based
property: EC50 (nM)
Express it in nM; write the number only.

Q: Identify measured EC50 associated with C[C@@H]1OC(=O)NN=C1c1ccc(-c2ccc(F)cc2)c(C(F)(F)F)c1
Ans: 3.1

* * *

test.description: Half life in iv dosed rat
Assay type: ADME, organism-based
study.conditions: in vivo
property: half-life (min)
Express it in min; write the number only.

Q: Identify measured half-life associated with C[C@@H]1OC(=O)NN=C1c1ccc(-c2ccc(F)cc2)c(C(F)(F)F)c1
Ans: 900

* * *

test.description: Metabolic stability in human hepatocytes assessed as bioavailability at 1 uM measured upto 90 mins by LC-MS/MS analysis
Assay type: ADME, Hepatocyte
The following compounds are shown together with reported hepatic bioavailability predicted from hepatocyte stability (Fh) at 1 µM values.
Express it in %; write the number only.

Sample records with hepatic bioavailability predicted from hepatocyte stability (Fh) at 1 µM:
- structure.as.smiles: "C[C@@H]1OC(=O)NN=C1c1ccc(-c2ccnc(N)c2)c(C(F)(F)F)c1"
  observed.value: 31
- structure.as.smiles: "C[C@@H]1OC(=O)NN=C1c1ccc(-c2cnn(C(F)F)c2)c(C(F)(F)F)c1"
  observed.value: 32
- structure.as.smiles: "C[C@@H]1OC(=O)NN=C1c1ccc(-c2ccc(F)cc2)c(C(F)(F)F)c1"
  observed.value: 73

Q: Identify measured hepatic bioavailability predicted from hepatocyte stability (Fh) at 1 µM associated with O=C1NN=C(c2ccc(N3CCC(F)(F)CC3)c(F)c2)CO1
Ans: 82

Q: Identify measured hepatic bioavailability predicted from hepatocyte stability (Fh) at 1 µM associated with O=C1NN=C(c2ccc(-c3ccc(F)cc3)c(OC(F)(F)F)c2)CO1
Ans: 80

Q: Identify measured hepatic bioavailability predicted from hepatocyte stability (Fh) at 1 µM associated with Cc1cc(C2=NNC(=O)OC2)ccc1-c1ccc(F)cc1
Ans: 75

Q: Identify measured hepatic bioavailability predicted from hepatocyte stability (Fh) at 1 µM associated with O=C1NN=C(c2ccc(-c3ccc(F)cc3)c(C(F)(F)F)c2)CO1
Ans: 70

Q: Identify measured hepatic bioavailability predicted from hepatocyte stability (Fh) at 1 µM associated with C[C@@H]1OC(=O)NN=C1c1ccc(-n2cc(C(F)(F)F)cn2)c(C(F)(F)F)c1
Ans: 79

* * *

The following molecules are shown together with reported clearance values.
test.description: Clearance in mouse blood
Assay type: ADME, tissue-based
Express it in mL/min/kg; write the number only.

Sample records with clearance:
- structure.as.smiles: "C[C@@H]1OC(=O)NN=C1c1ccc(-c2cnn(C(F)F)c2)c(C(F)(F)F)c1"
  clearance, mL/min/kg: 197
- structure.as.smiles: "C[C@@H]1OC(=O)NN=C1c1ccc(-c2ccc(F)cc2)c(C(F)(F)F)c1"
  clearance, mL/min/kg: 12.5
- structure.as.smiles: "O=C1NN=C(c2ccc(N3CCC(F)(F)CC3)c(F)c2)CO1"
  clearance, mL/min/kg: 91.7
- structure.as.smiles: "C[C@@H]1OC(=O)NN=C1c1ccc(-n2cc(C(F)(F)F)cn2)c(C(F)(F)F)c1"
  clearance, mL/min/kg: 18.3

Q: Identify measured clearance associated with O=C1NN=C(c2ccc(-c3ccc(F)cc3)c(C(F)(F)F)c2)CO1
Ans: 5.83

Q: Identify measured clearance associated with C[C@@H]1OC(=O)NN=C1c1ccc(-c2ccnc(N)c2)c(C(F)(F)F)c1
Ans: 42
